Assay: NCI Yeast Anticancer Drug Screen. Data for the rad50 strain (AID 155);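 further: 0% = growth of vehicle-only cultures of the same strain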
Conditions: S. cerevisiae rad50 strain growth inhibition; at 50.0 µM; stronger effect = higher value
About 79,000 compounds went through this panel and 15% of them were active in at least one assay; those are over-represented in the sample as a whole.
reportedMetric: growth inhibition (%)

molecule	unitAbbrev	experimentalResult
COc1ccc(C(O)S(=O)(=O)O)cc1 (configuration not stated)	%	-1.1
C=CCc1cc(OC)c2c(c1)C(OC)CC(c1ccc(OC)c(OC)c1)O2 (configuration not stated)	%	-3.7
Cc1ccc(C(=O)/C=C\C=C\c2ccccc2)cc1	%	16.6
O=c1[nH]c(Sc2ccccc2)nc2ccccc12	%	15.7
CCCCCCOc1ccc(OCCCC[N+]2(CC)CCCCC2)cc1	%	75.5
Nc1ccc(C(=O)Oc2ccc(OC(=O)c3ccccc3)cc2)cc1	%	9.7
COc1cc(C2c3cc4c(cc3OC(Nc3ccccc3)C2C)OCO4)cc(OC)c1OC (configuration not stated)	%	-12.7
COC(=O)/C=C1\C(=O)N(C(C)=O)c2ccccc21	%	12.3
NC(=S)N/N=C\c1ncccc1OCc1cccc(N)c1	%	32.3
O=C1CCCC1C(=O)c1ccccc1.O=C1CCCC1C(=O)c1ccccc1.[Cu] (configuration not stated)	%	70.9
COc1cc2cc3c4ccc(OC)c(OC)c4cc[n+]3c(C)c2cc1OC (tested in a mixture with another compound)	%	98.1
CC12C=CC(=O)C=C1CCC1C3CC(F)C(O)(C(=O)CO)C3(C)CC(O)C12F (configuration not stated)	%	-6.35
NC(=O)C(CO)NC(=O)c1ccc[n+](Cc2ccccc2)c1 (configuration not stated)	%	5.3
COc1ccc2c(=O)c(S)coc2c1	%	35.8
COC(=O)C(=O)c1c2ccccc2n2ccc3c4ccccc4[nH]c3c12	%	25.9
O=c1[nH]c(Nc2nc3ccccc3[nH]2)nc(O)c1-c1ccccc1	%	-2.85
Fc1ccc(-c2cc(-c3ccc(F)cc3)cc(-c3ccc(F)cc3)c2)cc1	%	-0.4
C/C(=N\Nc1cc(C)nc2cc3c(cc12)OCO3)c1cn(C)n(-c2ccccc2)c1=O	%	19.9
C1=CC(=P(c2ccccc2)(c2ccccc2)c2ccccc2)C=C1	%	20.4
CC1=NN(c2ccccc2)C(=O)/C1=C\c1ccc([N+](=O)[O-])cc1	%	25.9
Nc1ncc(Cl)c(NCC2(CO)CC(CCc3ccccc3)C2)n1 (configuration not stated)	%	-4.7
O=C(O)c1ccc(O)c(Cl)c1	%	14.2
C[C@]12C(=O)C=CCC1=CC[C@@H]1[C@@H]2[C@H]2CC3(O)C(=O)O[C@@]4(C)[C@H]5C[C@@]6(C)[C@@H]7[C@@]2(O)[C@]1(OC[C@H]6C(=O)O5)O[C@]734 (some centres not stated)	%	9.6
CC(=O)NC1C(OCC(=O)NCCNc2ccc([N+](=O)[O-])c3[nH]c4ccccc4c(=O)c23)C(O)C(CO)OC1(C)OCc1ccccc1 (configuration not stated)	%	-3.9
N#CC[N+]1(Cc2ccccn2)CCCC1	%	-4.5
Nc1ccc(C(=O)O)cc1O	%	13.7
CCCCNc1ccccc1	%	30.4
Nc1nc(SCc2ccccc2Cl)cc(C(=O)O)n1	%	31.6
c1ccc2c(c1)oc1cc3c(cc12)n1nnnc1c1cccn31	%	9
CCCCCC(N)C(=O)O (configuration not stated)	%	1.7
COc1ccc(NC(=O)Nc2ccc(SC)cc2)c(Cl)c1	%	0.75
COc1ccc(C(O)C(c2ccc(OCc3ccccc3)cc2)c2ccc(OCc3ccccc3)cc2)cc1 (configuration not stated)	%	1.05
CN(C)c1ccc(-c2c(C#N)c(N)[nH]c(=S)c2C#N)cc1	%	9.9
CCC(C)(CCC(C)C)c1ccncc1 (configuration not stated)	%	-3.45
CC1(c2cccc[n+]2Cc2ccc(Cl)c(Cl)c2)OCCO1	%	6.7
COC(=O)C(=O)C(C(=O)C1=NS(=O)(=O)c2cc(S(N)(=O)=O)c(Cl)cc2N1)c1nc2ccc(C(=O)c3ccccc3)cc2[nH]c1=O (configuration not stated)	%	-9.7
[N-]=[N+]=Nc1ccc(NCCCCCC(=O)ON2C(=O)CCC2=O)c([N+](=O)[O-])c1	%	72
